- experimental.protocol: Cmax in ICR mouse at 1 mg/kg, iv measured for 0.083 to 24 hrs by LC-MS/MS analysis
- Format: ADME, organism-based
- Parameters: time lower 0.083 hrs, dose 1 mg/kg, time upper 24 hrs, route iv
- condition.description: in vivo
measured.attribute: Cmax (ng/mL)
Respond with the bare value in ng/mL.

// query Entry `O=C(NO)c1nc(-c2ccc(COc3ccc(Br)cc3)cc2)no1` has what Cmax?
// result 787

* * *

- experimental.protocol: Half life in ICR mouse at 10 mg/kg, po measured for 0.083 to 24 hrs by LC-MS/MS analysis
- Type: ADME, organism-based
- condition.description: in vivo, time 0.083-24 hrs
measured.attribute: half-life (min)
Give just the number in min; leave the unit off.

// query Tell me the measured half-life of `O=C(NO)c1nc(-c2ccc(COc3ccc(Br)cc3)cc2)no1` , please.
// result 49.8

Origin of values: ChEMBL document CHEMBL5380809
